Measured values drawn from patent US20180194762A1 for this set.

# Measurement Target: Btk (Homo sapiens)
# Construct: purified from insect cells as a full-length construct containing a N-terminal 6X-His tag; His6 (N); made in house; host or cells: insect cells (Method C)
# Sequence (Q06187 whole entry): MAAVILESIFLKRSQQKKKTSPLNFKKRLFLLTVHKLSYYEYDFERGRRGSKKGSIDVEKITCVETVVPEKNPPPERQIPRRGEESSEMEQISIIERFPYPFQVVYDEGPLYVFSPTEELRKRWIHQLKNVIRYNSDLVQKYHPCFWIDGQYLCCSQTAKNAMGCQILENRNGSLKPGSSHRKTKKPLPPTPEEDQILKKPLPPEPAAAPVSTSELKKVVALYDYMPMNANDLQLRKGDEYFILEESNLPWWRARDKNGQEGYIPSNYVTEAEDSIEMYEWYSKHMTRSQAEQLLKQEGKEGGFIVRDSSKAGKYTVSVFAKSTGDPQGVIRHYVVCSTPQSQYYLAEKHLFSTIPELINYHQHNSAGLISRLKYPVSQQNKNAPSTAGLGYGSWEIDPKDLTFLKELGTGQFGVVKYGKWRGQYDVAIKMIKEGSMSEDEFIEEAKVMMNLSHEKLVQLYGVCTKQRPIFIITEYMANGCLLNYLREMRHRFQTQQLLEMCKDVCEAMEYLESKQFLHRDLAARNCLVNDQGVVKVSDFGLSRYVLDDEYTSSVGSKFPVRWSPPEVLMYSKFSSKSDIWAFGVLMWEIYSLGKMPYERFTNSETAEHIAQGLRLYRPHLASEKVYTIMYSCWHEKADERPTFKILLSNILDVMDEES
# Protocol Text: Btk in vitro inhibitory activity (one of Method A TR-FRET, Method B electrophoretic mobility shift, Method C radiometric filter binding)
# Format: biochemical
# Run Conditions: wild-type Btk; read-out: Btk-WT IC50
Reported IC50 values for the following compounds.

[
  {
    "Compound": "CN(C)C(=O)N[C@@H]1CCN(c2n[nH]c3nccc(-c4ccc(CNC(=O)c5noc(C(C)(C)C)n5)c(F)c4)c23)C1",
    "Measurement Target": "Btk (Homo sapiens)",
    "Test Value": "0.889 nM"
  },
  {
    "Compound": "C=CC(=O)N1CC[C@@H](Nc2n[nH]c3nccc(-c4cccc(NC(=O)c5ccc(C(C)(C)C)cc5)c4CO)c23)C1",
    "Measurement Target": "Btk (Homo sapiens)",
    "Test Value": "0.57 nM"
  },
  {
    "Compound": "C[C@H]1CC[C@@H](N)CN1c1n[nH]c2nccc(-c3ccc(CNC(=O)c4cc(C(C)(C)C)on4)c(F)c3)c12",
    "Measurement Target": "Btk (Homo sapiens)",
    "Test Value": "156 nM"
  },
  {
    "Compound": "O=C(NCc1ccc(-c2ccnc3[nH]nc(NC4CCNC4)c23)cc1F)c1ccc2c(c1)OCCCO2 (stereo not drawn)",
    "Measurement Target": "Btk (Homo sapiens)",
    "Test Value": "719 nM"
  },
  {
    "Compound": "C=CC(=O)N1CC[C@@H](Nc2n[nH]c3nccc(-c4cccc(NC(=O)c5noc(C(C)(C)C)n5)c4C)c23)C1",
    "Measurement Target": "Btk (Homo sapiens)",
    "Test Value": "164 nM"
  }
]

Please turn your attention to the following entry.
The value of IC50 measured for the compound `C[C@@H](NC(=O)c1cc(C(C)(C)O)on1)c1ccc(-c2ccnc3[nH]nc(N[C@@H]4CC[C@H](C)N(C(=O)N(C)C)C4)c23)cc1F` turned out to be 28.6 nM
